- study-system: IGF-IR on human tumour cells (H292, MCF-7, RH41) (human, UniProt P08069 31-1367)
- assay-explanation: cell-based or functional assay
Catalogue of IC50, IGF1-stimulated IGFR phosphorylation, H292 cells, ELISA values
readout-label: IC50, IGF1-stimulated IGFR phosphorylation, H292 cells, ELISA (nM)

• E85-GS10-I1 pegylated (designed binder, Cys of the C-terminal Cys tail conjugated to 40 kDa branched PEG) E/I tandem 10Fn3 chain: MGVSDVPRDLEVVAATPTSLLISWTQGSTHYQYYRITYGETGGNSPVQEFTVPGMVYTATISGLKPGVDYTITVYAVTDYFDRSTHEYKYRTTPISINYRTEIDKGSGSGSGSGSGSGSGSGSGSVSDVPRDLEVVAATPTSLLISWSARLKVARYYRITYGETGGNSPVQEFTVPKNVYTATISGLKPGVDYTITVYAVTRFRDYQPISINYRTEIDKPCQHHHHHH = 0.3
• E105-GS10-I1 pegylated (designed binder, Cys of the C-terminal Cys tail conjugated to 40 kDa branched PEG) E/I tandem 10Fn3 chain: MGVSDVPRDLEVVAATPTSLLISWDAPTSRYQYYRITYGETGGNSPVQEFTVPGGLSTATISGLKPGVDYTITVYAVTDYKPHADGPHTYHESPISINYRTEIDKGSGSGSGSGSGSGSGSGSGSVSDVPRDLEVVAATPTSLLISWSARLKVARYYRITYGETGGNSPVQEFTVPKNVYTATISGLKPGVDYTITVYAVTRFRDYQPISINYRTEIDKPCQHHHHHH = 0.5
• I1-GS10-E105 pegylated, His-tagged (designed binder, 40 kDa branched PEG on the Cys of the C-terminal Cys tail) MGVSDVPRDLEVVAATPTSLLISWSARLKVARYYRITYGETGGNSPVQEFTVPKNVYTATISGLKPGVDYTITVYAVTRFRDYQPISINYRTEIDKGSGSGSGSGSGSGSGSGSGSVSDVPRDLEVVAATPTSLLISWDAPTSRYQYYRITYGETGGNSPVQEFTVPGGLSTATISGLKPGVDYTITVYAVTDYKPHADGPHTYHESPISINYRTEIDKPCQHHHHHH = 0.5
